Recorded activation at 0.0825 µM by entry
Tested on: HssRS-dependent hrtAB expression
Experiment Description: Luminescence-based assay to monitor HssRS-dependent hrtAB expression (phrtABlux reporter), Newman
Type: cell-based, Staphylococcus aureus
Condition Details: Staphylococcus aureus, NEWMAN, read-out: % Lumi, luminescence induced by the compound compared to the heme control (82.5 nM) in the same plate; Newman
Readout Label: activation at 0.0825 µM (%)

[
  {
    "Molecule": "Cc1cccc(NC(=O)c2cc3ccccc3cc2O)c1",
    "Readout Number": 217
  },
  {
    "Molecule": "O=C(Nc1ccccc1O)c1cccc(N2C(=O)c3ccc([N+](=O)[O-])cc3C2=O)c1",
    "Readout Number": 675
  },
  {
    "Molecule": "COC(NC(=O)Nc1nc2ccccc2s1)(C(F)(F)F)C(F)(F)F",
    "Readout Number": 280
  },
  {
    "Molecule": "CC1=NN(c2ccccc2)C(=O)/C1=N\\Nc1ccccc1O",
    "Readout Number": 60.3
  },
  {
    "Molecule": "COc1ccc(CN2CCCN(C)CC2)c(C)c1C",
    "Readout Number": 127
  },
  {
    "Molecule": "Oc1ccc(CCNC2CCCc3c2[nH]c2ccc(-c4ccccc4)cc32)cc1 (stereo not drawn)",
    "Readout Number": 127
  },
  {
    "Molecule": "Cc1ccc(CSCc2ccc(C(=O)NCc3ccc(F)cc3)o2)cc1",
    "Readout Number": 198
  },
  {
    "Molecule": "O=C(NC(=S)Nc1ccc(Oc2ccccc2)cc1)c1cccs1",
    "Readout Number": 415
  },
  {
    "Molecule": "COc1ccc(Br)cc1C(=O)NC(=S)Nc1cc(C)c(C)cc1O [drawing 24]",
    "Readout Number": 227
  },
  {
    "Molecule": "Cc1ccc(CNC(=O)c2ccc(CSCc3ccccc3Cl)o2)cc1",
    "Readout Number": 192
  },
  {
    "Molecule": "CC(C)(C)c1ccc(O)c(NC(=S)NC(=O)c2cc3ccccc3o2)c1",
    "Readout Number": 101
  },
  {
    "Molecule": "COc1cc(/C=C/c2ccc3cccc(O)c3n2)c(Cl)cc1O",
    "Readout Number": 533
  }
]

###

Test system: response regulator HssR
Experiment Description: HssR dependence of XylE inducing activity, Newman
Type: cell-based, Staphylococcus aureus
Condition Details: whether XylE inducing activity requires HssR
Description: With reference to Table 1, “Luminescence” refers to the raw luminescence value obtained in a luminomter. “Control (82.5 nm)” refers to the luminescence value obtained from heme at 82.5 nM as a positive control in the same plate as the experimental. “% lum” is the percentage of luminescence induced by the compound as compared to the heme control in the same plate. […] All of these assays are described in the application. […] “N/T” indicates the test was not performed. […]
Readout Label: HssR Dep

[
  {
    "Molecule": "Brc1ccc(-c2nc(NCc3ccccc3)c3ccccc3n2)cc1",
    "Readout Label": "HssR Dep",
    "Result": "−"
  },
  {
    "Molecule": "CC(NC(=O)C1(c2ccccc2)CCCC1)C1COc2ccccc2O1 (centres unmarked) [drawing 45]",
    "Readout Label": "HssR Dep",
    "Result": "+"
  },
  {
    "Molecule": "O=C(N/N=C/c1ccc(-c2cccc(C(F)(F)F)c2)o1)C1COc2ccccc2O1 (centres unmarked) [drawing 49]",
    "Readout Label": "HssR Dep",
    "Result": "+"
  },
  {
    "Molecule": "CC1=NN(c2ccccc2)C(=O)/C1=N\\Nc1ccccc1O",
    "Readout Label": "HssR Dep",
    "Result": "−"
  },
  {
    "Molecule": "Oc1c(-c2cc(-c3ccco3)[nH]n2)ccc2ccccc12 [drawing 25]",
    "Readout Label": "HssR Dep",
    "Result": "+"
  },
  {
    "Molecule": "COC(NC(=O)Nc1nc2ccccc2s1)(C(F)(F)F)C(F)(F)F",
    "Readout Label": "HssR Dep",
    "Result": "−"
  },
  {
    "Molecule": "CC(C)CSc1nnc(-c2ccccc2)c(-c2ccccc2)n1",
    "Readout Label": "HssR Dep",
    "Result": "+"
  },
  {
    "Molecule": "Oc1c(-c2cc(-c3ccco3)[nH]n2)ccc2ccccc12 [drawing 65]",
    "Readout Label": "HssR Dep",
    "Result": "+"
  },
  {
    "Molecule": "O=C(Nc1ccc(NC(=O)c2cccs2)c(Cl)c1)c1cccs1",
    "Readout Label": "HssR Dep",
    "Result": "−"
  },
  {
    "Molecule": "CC(NC(=O)C1(c2ccccc2)CCCC1)C1COc2ccccc2O1 (centres unmarked) [drawing 26]",
    "Readout Label": "HssR Dep",
    "Result": "+"
  },
  {
    "Molecule": "O=c1c2ccccc2nc(/C=C\\c2ccccc2Cl)n1-c1ccccc1O",
    "Readout Label": "HssR Dep",
    "Result": "+"
  }
]

###

Tested on: hrtAB-driven expression of the xylE reporter gene
Experiment Description: XylE reporter assay (hrtAB promoter-xylE), Newman
Type: cell-based, Staphylococcus aureus
Condition Details: level of XylE induction at 0.5 uM of the compound
Recorded XylE (0.5) by entry
Readout Label: XylE (0.5)

[
  {
    "Compound": "O=C(NC(=S)Nc1ccc(-c2nc3ccccc3s2)cc1)c1ccccc1[N+](=O)[O-] [drawing 23]",
    "Readout Label": "XylE (0.5)",
    "Readout Number": 0.07
  },
  {
    "Compound": "COc1ccc(Cl)cc1NC(=O)Nc1ccc(Cl)cc1",
    "Readout Label": "XylE (0.5)",
    "Readout Number": 0.03
  },
  {
    "Compound": "COc1ccccc1N1C(=O)c2ccc(C(=O)OC(C)C(=O)c3ccc(C)cc3)cc2C1=O (stereo not shown)",
    "Readout Label": "XylE (0.5)",
    "Readout Number": 0.6
  },
  {
    "Compound": "CCOC(=O)c1c(NC(=O)C2CCCCC2)sc(C(=O)Nc2ccc(C)c(Cl)c2)c1C",
    "Readout Label": "XylE (0.5)",
    "Readout Number": 2
  },
  {
    "Compound": "C/C=C/C=N/Nc1nnc2c(n1)[nH]c1ccccc12",
    "Readout Label": "XylE (0.5)",
    "Readout Number": 0.06
  },
  {
    "Compound": "Cc1ccc(CSCc2ccc(C(=O)NCc3ccc(F)cc3)o2)cc1",
    "Readout Label": "XylE (0.5)",
    "Readout Number": 0
  },
  {
    "Compound": "Oc1ccccc1-c1nc(NC2CCCC2)c2ccccc2n1",
    "Readout Label": "XylE (0.5)",
    "Readout Number": 0.09
  },
  {
    "Compound": "NS(=O)(=O)c1ccc(Nc2nc(-c3ccc(Cl)cc3)cs2)cc1",
    "Readout Label": "XylE (0.5)",
    "Readout Number": 1
  },
  {
    "Compound": "O=C(N/N=C/c1ccc(-c2cccc(C(F)(F)F)c2)o1)C1COc2ccccc2O1 (stereo not shown) [drawing 49]",
    "Readout Label": "XylE (0.5)",
    "Readout Number": 0
  },
  {
    "Compound": "Cc1ccc(CNC(=O)c2ccc(CSCc3ccccc3Cl)o2)cc1",
    "Readout Label": "XylE (0.5)",
    "Readout Number": 0.08
  },
  {
    "Compound": "O=[N+]([O-])c1ccc(O)c(C2NN=C(Cc3ccccc3)S2)c1 (stereo not shown)",
    "Readout Label": "XylE (0.5)",
    "Readout Number": 0.05
  },
  {
    "Compound": "O=C(Nc1ccncc1)c1ccc(COc2ccccc2Cl)cc1",
    "Readout Label": "XylE (0.5)",
    "Readout Number": 0.09
  },
  {
    "Compound": "C/C(=N/NC(=O)c1cccc(I)c1)c1ccccc1O",
    "Readout Label": "XylE (0.5)",
    "Readout Number": 0.03
  },
  {
    "Compound": "O=C(Nc1ccccc1C(=O)Nc1ccc(Cl)cc1)c1ccccc1",
    "Readout Label": "XylE (0.5)",
    "Readout Number": 0.08
  },
  {
    "Compound": "Cc1cc(C)c(S(=O)(=O)Nc2ccc(O)c(-c3c(O)ccc4ccccc34)c2)cc1C",
    "Readout Label": "XylE (0.5)",
    "Readout Number": 0.03
  },
  {
    "Compound": "Oc1ccc(CCNC2CCCc3c2[nH]c2ccc(-c4ccccc4)cc32)cc1 (stereo not shown)",
    "Readout Label": "XylE (0.5)",
    "Readout Number": 0.02
  },
  {
    "Compound": "Cc1cc(-c2ccc(N)cc2)nc2ccc3ccccc3c12",
    "Readout Label": "XylE (0.5)",
    "Readout Number": 0.06
  },
  {
    "Compound": "Cc1ccc(O)c(NC(=O)c2nn3c(c2Br)NC(c2ccco2)CC3C(F)(F)F)c1 (stereo not shown) [drawing 60]",
    "Readout Label": "XylE (0.5)",
    "Readout Number": 0.7
  },
  {
    "Compound": "COc1cc(/C=C/c2ccc3cccc(O)c3n2)c(Cl)cc1O",
    "Readout Label": "XylE (0.5)",
    "Readout Number": 1
  },
  {
    "Compound": "Cc1ccc(-c2nnc(SCC(=O)NC3CCCC3)nc2-c2ccc(C)cc2)cc1",
    "Readout Label": "XylE (0.5)",
    "Readout Number": 1
  },
  {
    "Compound": "Cc1ccc(Nc2nc(-c3ccccc3O)nc3ccccc23)cc1",
    "Readout Label": "XylE (0.5)",
    "Readout Number": 0.04
  },
  {
    "Compound": "O=C(Nc1ccc(NC(=O)c2ccccc2)c(Cl)c1)c1ccccc1",
    "Readout Label": "XylE (0.5)",
    "Readout Number": 0.05
  }
]

Data provenance: patent US8263642B2
